Provenance of the data: the NIST ThermoML archive (doi:10.1021/je060139a)

- protocolSummary: xn = mol fraction of the nth substance listed
- conditionInfo: 288.15 K, Wilhelmy plate method, x1 = 0.2

compound: CCOC(=O)CC(C)C [ethyl 3-methylbutanoate] + CCO
unitLabel: mN/m
surface tension liquid-gas: 23.46
//
compound: CCC(=O)OCc1ccccc1 [benzyl propanoate] + CCO
unitLabel: mN/m
surface tension liquid-gas: 26.13
//
compound: CC(=O)OCc1ccccc1 [benzyl ethanoate] + CCO
unitLabel: mN/m
surface tension liquid-gas: 26.1
//
compound: CCOC(=O)CC(C)=O [ethyl 3-oxobutanoate] + CCO
unitLabel: mN/m
surface tension liquid-gas: 25.22
//
compound: CCOC(=O)c1ccccc1O [ethyl 2-hydroxybenzoate] + CCO
unitLabel: mN/m
surface tension liquid-gas: 26.1
//
compound: COC(=O)c1ccccc1 [methyl benzoate] + CCO
unitLabel: mN/m
surface tension liquid-gas: 26.18
